- Tested on: HST in spinach chloroplast extract
- experimentNotes: HST assay (TLC, MFBQ formed), spinach chloroplast extract
- Assay type: biochemical
- experimentalConditions: 25 ppm; TLC, estimated amount of MFBQ formed, relative to controls
Listed next: entries and their corresponding Spinach chloroplast extract % I at 25 ppm.
endpointName: Spinach chloroplast extract % I at 25 ppm (%)

>  <compound>
COc1nc(C)nc(NC(=O)NS(=O)(=O)c2ccccc2Cl)n1 [Chlorsulfuron, reference compound]

>  <measuredOn>
HST in spinach chloroplast extract

>  <endpointUnit>
%

>  <dataValue>
0

$$$$
>  <compound>
Oc1c(Cl)c(Cl)nc(Cl)c1Cl [Compound 1.2]

>  <measuredOn>
HST in spinach chloroplast extract

>  <endpointUnit>
%

>  <dataValue>
80

$$$$
>  <compound>
O=c1c(-c2c(Cl)cncc2Cl)c(O)c2nccnc2n1CC(F)F [Compound 5.1]

>  <measuredOn>
HST in spinach chloroplast extract

>  <endpointUnit>
%

>  <dataValue>
10

$$$$

###

- System: weeds
- experimentNotes: Glasshouse weed control, HST inhibitors alone and with A22, pre-emergence
- Assay type: in vivo
- experimentalConditions: SETFA, 14 DAT, HST inhibitor rate 62.5 g/ha
- Procedure: In a further test, the results of which are depicted in tables 18 and 19, weed seeds are planted out in trays containing 50% peat/50% John Innes no. 3 soil and grown in the glass house at 24-27 C day; 18-21 C night and approximately a 15 h photoperiod. Humidity is ˜65% and light levels at bench level are up to 2 mmol/m^2. […] Plants are assessed at 14 DAT with herbicidal damage scored on a scale from 0 to 100%. […]
endpointName: SETFA Obs, % control score

>  <molecule>
O=c1c(-c2c(F)ccc(F)c2Cl)c(O)c2nccnc2n1CC(F)F [Compound 2.3]

>  <endpointName>
SETFA Obs, % control score

>  <dataValue>
5%

$$$$
>  <molecule>
CC(C)C(=O)Oc1c(-c2c(Cl)cccc2C(F)(F)F)c(=O)n(CC(F)F)c2nccnc12 [Compound 2.28]

>  <endpointName>
SETFA Obs, % control score

>  <dataValue>
25%

$$$$
>  <molecule>
CC(C)(C)C(=O)Oc1c(-c2c(F)ccc(Cl)c2Cl)c(=O)n(CC(F)F)c2nccnc12 [Compound 2.25]

>  <endpointName>
SETFA Obs, % control score

>  <dataValue>
1%

$$$$
>  <molecule>
C#Cn1c(=O)c(-c2c(F)ccc(F)c2Cl)c(O)c2nccnc21 [Compound 2.18]

>  <endpointName>
SETFA Obs, % control score

>  <dataValue>
20%

$$$$

###

- Tested on: weeds
- experimentNotes: Glasshouse weed control, HST inhibitors alone and with A22, pre-emergence
- Assay type: in vivo
- experimentalConditions: Setaria faberi, 336 h, SETFA, 14 DAT, HST inhibitor rate 62.5 g/ha, read-out: SETFA Obs, % control score
endpointName: pest or weed control at 62.5 g/ha (%)

>  <compound>
O=c1c(-c2c(F)ccc(Br)c2Cl)c(O)c2cccnc2n1CC(F)F

>  <measuredOn>
weeds

>  <endpointName>
pest or weed control at 62.5 g/ha

>  <dataValue>
0

$$$$
>  <compound>
O=c1c(-c2c(F)ccc(Cl)c2Cl)c(O)c2nccnc2n1CC(F)F

>  <measuredOn>
weeds

>  <endpointName>
pest or weed control at 62.5 g/ha

>  <dataValue>
0

$$$$
>  <compound>
Cn1c(=O)c(-c2c(Cl)cccc2C(F)(F)F)c(O)c2nccnc21

>  <measuredOn>
weeds

>  <endpointName>
pest or weed control at 62.5 g/ha

>  <dataValue>
10

$$$$
>  <compound>
O=c1c(-c2cc(Cl)ccc2C(F)(F)F)c(O)c2nccnc2n1CC(F)F

>  <measuredOn>
weeds

>  <endpointName>
pest or weed control at 62.5 g/ha

>  <dataValue>
5

$$$$
>  <compound>
O=S1(=O)C(c2ccc(Br)cc2C(F)(F)F)=C(O)c2nccnc2N1CC(F)F

>  <measuredOn>
weeds

>  <endpointName>
pest or weed control at 62.5 g/ha

>  <dataValue>
0

$$$$
>  <compound>
O=c1c(-c2c(Cl)ccc(Cl)c2Cl)c(O)c2nccnc2n1CC(F)F

>  <measuredOn>
weeds

>  <endpointName>
pest or weed control at 62.5 g/ha

>  <dataValue>
2

$$$$
>  <compound>
O=c1c(-c2c(Cl)cccc2C(F)(F)F)c(O)c2nccnc2n1CC(F)F

>  <measuredOn>
weeds

>  <endpointName>
pest or weed control at 62.5 g/ha

>  <dataValue>
20

$$$$
>  <compound>
CC1=NN(C)C(=O)C(c2c(C)cc(C)cc2C)C1=O (centres unmarked)

>  <measuredOn>
weeds

>  <endpointName>
pest or weed control at 62.5 g/ha

>  <dataValue>
2

$$$$
>  <compound>
O=c1c(-c2cc(C(F)(F)F)ccc2Cl)c(O)c2nccnc2n1CC(F)F

>  <measuredOn>
weeds

>  <endpointName>
pest or weed control at 62.5 g/ha

>  <dataValue>
0

$$$$
>  <compound>
O=c1c(-c2c(F)ccc(Br)c2Cl)c(O)c2nccnc2n1CC(F)F

>  <measuredOn>
weeds

>  <endpointName>
pest or weed control at 62.5 g/ha

>  <dataValue>
0

$$$$
>  <compound>
O=c1c(-c2c(F)ccc(F)c2Cl)c(O)c2nccnc2n1CC(F)(F)F

>  <measuredOn>
weeds

>  <endpointName>
pest or weed control at 62.5 g/ha

>  <dataValue>
0

$$$$

Data provenance: patent US20110173718A1
